System: HCT 116 cells
Assay: Cell growth assay (CellTiter-Glo 2.0), HCT 116 MSI-H cell line
Conditions: Homo sapiens, HCT-116, 120 h, read-out: Cell Growth Inhibition GI50 HCT-116
parameter: GI50 (nM)
Write the answer as a number in nM, unit excluded.

Known results for compounds:
* COCC(/C=C/S(C)(=O)=O)NC(=O)c1cnc(C(F)(F)C2CC2)nc1Oc1ccccc1 (stereo in doubt) | 23
* C[C@@H](/C=C/S(C)(=O)=O)NC(=O)c1cnc(C2CCCC2)nc1OC1CCCC1 | 709
* C[C@@H](/C=C/S(C)(=O)=O)NC(=O)c1cnc(C2CCCC2)nc1Oc1cccnc1 | 3100
* CS(=O)(=O)/C=C/[C@@H](NC(=O)c1cnc([C@H]2C[C@@H](C)C2)nc1Oc1ccccc1)C1CC1 (single isomer, unassigned) | 36.5
* CC(C)(C)c1ncc(C(=O)N[C@H](/C=C/S(C)(=O)=O)CC(F)F)c(Oc2ccccc2)n1 | 300
* C[C@@H](/C=C/S(C)(=O)=O)NC(=O)c1cnc(C2(c3ccccc3)CC2)nc1Oc1ccccc1 | 355
* CNc1ncc(C(=O)N[C@H](/C=C/S(C)(=O)=O)C2CC2)c(Oc2ccccc2)n1 | 3200
* CS(=O)(=O)/C=C/[C@@H](NC(=O)c1cnc(C(F)(F)F)nc1Oc1ccccc1)C1CC1 | 280

Which GI50 reading was recorded for the compound "C[C@@H](/C=C/S(C)(=O)=O)NC(=O)c1cc(C#N)c(C2CCCC2)nc1Oc1ccccc1" ?
400

Please give the result for "CC(C)c1ncc(C(=O)NC/C=C/S(C)(=O)=O)c(Oc2ccccc2)n1" too.
5400
